Hi there, I'd appreciate the recorded pIC50 for every entry that follows.
SUBJECT OF TEST: PI 3-kinase delta (Homo sapiens, UniProt O00329)
Sequence (O00329 whole entry): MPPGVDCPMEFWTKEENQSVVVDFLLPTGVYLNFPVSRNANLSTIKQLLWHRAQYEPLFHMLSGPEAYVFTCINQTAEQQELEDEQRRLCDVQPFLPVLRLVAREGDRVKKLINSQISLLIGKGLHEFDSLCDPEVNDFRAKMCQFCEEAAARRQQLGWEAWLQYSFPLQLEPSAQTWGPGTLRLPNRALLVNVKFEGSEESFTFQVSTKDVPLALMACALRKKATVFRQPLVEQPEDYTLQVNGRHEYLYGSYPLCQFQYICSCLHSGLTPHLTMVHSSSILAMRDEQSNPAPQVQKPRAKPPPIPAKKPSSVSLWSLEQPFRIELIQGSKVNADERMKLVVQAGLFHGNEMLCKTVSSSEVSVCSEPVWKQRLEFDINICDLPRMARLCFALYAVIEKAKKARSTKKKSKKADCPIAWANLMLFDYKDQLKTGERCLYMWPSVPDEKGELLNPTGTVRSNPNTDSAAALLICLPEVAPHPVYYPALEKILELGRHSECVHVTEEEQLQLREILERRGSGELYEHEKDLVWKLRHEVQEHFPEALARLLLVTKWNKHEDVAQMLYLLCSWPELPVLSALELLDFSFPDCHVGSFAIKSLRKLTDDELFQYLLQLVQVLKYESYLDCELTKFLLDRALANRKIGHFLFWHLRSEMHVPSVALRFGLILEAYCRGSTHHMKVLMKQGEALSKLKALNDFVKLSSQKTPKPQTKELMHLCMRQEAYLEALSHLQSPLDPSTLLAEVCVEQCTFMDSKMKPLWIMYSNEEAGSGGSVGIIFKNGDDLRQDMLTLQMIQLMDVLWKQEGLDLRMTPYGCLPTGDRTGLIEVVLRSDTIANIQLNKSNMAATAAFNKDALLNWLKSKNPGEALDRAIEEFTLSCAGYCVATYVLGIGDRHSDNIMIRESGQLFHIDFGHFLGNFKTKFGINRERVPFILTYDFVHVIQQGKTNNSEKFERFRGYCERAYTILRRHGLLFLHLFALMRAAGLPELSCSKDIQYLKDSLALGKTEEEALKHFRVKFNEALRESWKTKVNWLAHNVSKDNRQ
Sequence (P27986 461-568 partner): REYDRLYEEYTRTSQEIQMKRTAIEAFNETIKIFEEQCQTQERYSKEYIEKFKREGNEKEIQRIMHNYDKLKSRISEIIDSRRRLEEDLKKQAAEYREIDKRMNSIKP
TEST: TR-FRET Adapta assay, assay F
As a rule, pIC50 stands for the negative log10 of the concentration, concentration in M.

Lab book: pIC50 of Cc1ncc(-c2nc(-c3cc(S(=O)(=O)NC[C@H]4C[C@@H](O)C4)ccc3C)cnc2N)s1 [Example 20a] noted as 7.30

Measured pIC50 of `Cc1cc(-c2nc(-c3cc(S(=O)(=O)N[C@@H]4CCC[C@H]4N)ccc3C)cnc2N)ccn1` : 6.04

Item: Cc1ncc(-c2nc(-c3cc(S(=O)(=O)N[C@H]4C[C@@H](O)C4)ccc3C)cnc2N)s1 [Example 43a] | pIC50: 6.17

###

Would you kindly list IC50 for each of these compounds?
SUBJECT OF TEST: Vps34 (Homo sapiens)
Sequence (Q8NEB9 whole entry, species assumed): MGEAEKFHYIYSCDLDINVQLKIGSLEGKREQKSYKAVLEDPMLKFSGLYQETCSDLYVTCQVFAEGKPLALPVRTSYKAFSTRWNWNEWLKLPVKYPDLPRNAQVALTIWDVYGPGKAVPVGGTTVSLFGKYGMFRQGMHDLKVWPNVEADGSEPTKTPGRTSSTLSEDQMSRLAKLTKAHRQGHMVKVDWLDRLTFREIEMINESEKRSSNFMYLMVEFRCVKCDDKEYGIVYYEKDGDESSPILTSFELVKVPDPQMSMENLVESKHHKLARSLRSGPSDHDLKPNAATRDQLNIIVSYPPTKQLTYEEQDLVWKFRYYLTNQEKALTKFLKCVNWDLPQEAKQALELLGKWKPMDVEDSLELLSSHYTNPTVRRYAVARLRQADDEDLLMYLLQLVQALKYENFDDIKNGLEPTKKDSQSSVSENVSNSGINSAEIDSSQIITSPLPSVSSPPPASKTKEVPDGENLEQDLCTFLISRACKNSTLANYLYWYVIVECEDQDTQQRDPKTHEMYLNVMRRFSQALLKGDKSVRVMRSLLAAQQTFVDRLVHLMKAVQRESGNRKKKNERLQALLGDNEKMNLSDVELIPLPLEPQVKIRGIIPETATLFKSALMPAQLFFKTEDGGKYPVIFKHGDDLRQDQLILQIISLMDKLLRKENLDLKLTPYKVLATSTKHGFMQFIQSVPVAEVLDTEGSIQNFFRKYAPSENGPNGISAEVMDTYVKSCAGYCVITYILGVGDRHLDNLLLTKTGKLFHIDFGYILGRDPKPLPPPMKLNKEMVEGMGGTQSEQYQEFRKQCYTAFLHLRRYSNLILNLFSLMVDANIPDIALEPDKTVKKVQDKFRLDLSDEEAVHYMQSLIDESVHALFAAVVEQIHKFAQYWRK
TEST: Kinase Glo Luminescent Kinase Assay (Kglo), assay C
Format: biochemical
TEST CONTEXT: read-out: Assay C VPS34 IC50

With Vps34 (Homo sapiens) as the test system, `Cc1ncc(-c2nc(-c3cc(S(=O)(=O)NC[C@H]4CCOC4)ccc3C)cnc2N)s1` showed IC50 of 4.65 µM

Let me check: `CCN1CCC[C@@H]1CNS(=O)(=O)c1ccc(C)c(-c2cnc(N)c(-n3cncn3)n2)c1` , system Vps34 (Homo sapiens), measured IC50 is > 10 µM

Vps34 (Homo sapiens) data for Cc1ccc(S(=O)(=O)NCCC(O)C(F)(F)F)cc1-c1cnc(N)c(-c2cnn(C)c2)n1 (stereo not drawn) ; its IC50: 7.15 µM

Readout IC50 for Cc1ccc(S(=O)(=O)N[C@H]2C[C@H](O)C2)cc1-c1cnc(N)c(-n2cncn2)n1 [Example 71a] , test system Vps34 (Homo sapiens), was > 10 µM

Log: Vps34 (Homo sapiens), compound `Cc1ccc(S(=O)(=O)N[C@H]2CC[C@H](O)CC2)cc1-c1cnc(N)c(-c2nc(C3CC3)no2)n1` , IC50 = > 9.1 µM

IC50 on Vps34 (Homo sapiens) for `Cc1ccc(S(=O)(=O)N2CC(F)C2)cc1-c1cnc(N)c(-n2cncn2)n1` is > 10 µM

# IC50 measured on Vps34 (Homo sapiens) for item Cc1ccc(S(=O)(=O)NCC2CNCCO2)cc1-c1cnc(N)c(-c2cn(C)nc2C)n1 (stereo not drawn) = > 10 µM

I looked up `Cc1ccc(S(=O)(=O)N[C@H]2CC[C@H](O)CC2)cc1-c1cnc(N)c(-c2ccnc(F)c2)n1` and its IC50 for Vps34 (Homo sapiens) was > 9.1 µM

Fill in: Vps34 (Homo sapiens) IC50 for `CCc1nnc(-c2nc(-c3cc(S(=O)(=O)N[C@H]4CC[C@H](O)CC4)ccc3C)cnc2N)o1` = > 9.1 µM

Field IC50 (system: Vps34 (Homo sapiens)) for entry `Cc1ccc(S(=O)(=O)NCCC(C)(C)O)cc1-c1cnc(N)c(-c2cc[nH]n2)n1` = > 9.1 µM

Observed IC50 on Vps34 (Homo sapiens), entry `Cc1ccc(S(=O)(=O)N[C@H]2CCOC2)cc1-c1cnc(N)c(-n2cncn2)n1` , equals > 10 µM

Summary line: `Cc1ccc(S(=O)(=O)N[C@H]2CC[C@H](O)CC2)cc1-c1cnc(N)c(-n2cccn2)n1` , Vps34 (Homo sapiens), reported IC50 = > 9.1 µM

Result for `Cc1ccc(S(=O)(=O)NCC(C)(C)O)cc1-c1cnc(N)c(-n2cc(C)c(C)n2)n1` , tested on Vps34 (Homo sapiens), IC50: > 10 µM

Bench note, Vps34 (Homo sapiens): entry `CCc1noc(-c2nc(-c3cc(S(=O)(=O)N[C@H]4CC[C@H](O)CC4)ccc3C)cnc2N)n1` , its IC50 = > 9.1 µM

Cc1ncc(-c2nc(-c3cc(S(=O)(=O)NC4CC(O)C4)ccc3C)cnc2N)s1 (mixture of isomers) tested on Vps34 (Homo sapiens) gave IC50: 0.9 µM
